These data points were gathered from patent US20160002180A1.

# Tested on: HCVpp GT-1b (pseudotyped HCV GT1b particles, E1 and E2 envelope proteins of GT1b Con1 strain)
# Assay Overview: microbe, parasite or virus in culture
# Format: cell-based
# Experimental Setup: Hepatitis C virus, 72 h, read-out: HCVpp GT-1b (EC50, μM)
# label = TRUE if EC50 < 30 µM else FALSE

Previously resolved entries follow.
# Test Smiles, Assigned Label
rows = [
    ("Fc1c(Cl)cc(Nc2ncn(Cc3ccccc3)n2)cc1Cl", "TRUE"),
    ("Clc1cc(Cl)cc(Nc2nc[nH]n2)c1", "TRUE"),
    ("CC(C)Cc1nc(Nc2cc(Cl)cc(Cl)c2)n[nH]1", "FALSE"),
    ("COc1n[nH]c(Nc2cc(Cl)nc(Cl)c2)n1", "FALSE"),
    ("COc1n[nH]c(Nc2cc(Cl)cc(Cl)c2)n1", "FALSE"),
    ("Fc1c(Cl)cc(Nc2ncnn2Cc2ccccc2)cc1Cl", "TRUE"),
    ("FC(F)(F)c1nc(Nc2cc(Cl)cc(Cl)c2)n[nH]1", "TRUE"),
    ("Nc1cccc(Nc2ncn(Cc3ccccc3)n2)c1", "FALSE"),
]

Below 30 µM on EC50? Entry Clc1cc(Cl)cc(Nc2ncnn2Cc2ccccc2)c1 FALSE

Is EC50 strictly under 30 µM for the entry COCc1n[nH]c(Nc2cc(Cl)nc(Cl)c2)n1 ? FALSE
